Biological target: human CB2 (hCB2) receptor (Homo sapiens, UniProt P34972)
Construct: expressed in transfected cells; host or cells: CHO-K1
Sequence (P34972 whole entry): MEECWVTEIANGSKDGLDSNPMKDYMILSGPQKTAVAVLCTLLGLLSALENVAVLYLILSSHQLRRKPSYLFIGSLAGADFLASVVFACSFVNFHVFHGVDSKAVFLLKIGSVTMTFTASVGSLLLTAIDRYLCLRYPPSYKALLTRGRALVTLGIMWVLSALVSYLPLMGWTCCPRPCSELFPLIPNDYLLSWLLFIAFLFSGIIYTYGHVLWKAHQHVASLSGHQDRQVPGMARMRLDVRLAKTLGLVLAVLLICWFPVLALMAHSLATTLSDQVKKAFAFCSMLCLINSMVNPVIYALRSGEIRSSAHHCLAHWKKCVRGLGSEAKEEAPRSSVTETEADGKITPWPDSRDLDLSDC
Test: Inhibition of forskolin-activated cAMP production upon activation of hCB2 (HTRF), CHO-K1 cells
Type: cell-based
Conditions: hCB2-CHO-K1 cells, forskolin-activated cAMP, pEC50=-log(EC50); read-out: CB2 pEC50 (converted)
ENDPOINT: EC50
Quote the value and follow it with the unit of measurement.

Please review the entries below; each comes with its answer.
{"COMPOUND": "CC(C)(C)c1nc2cc(S(=O)(=O)c3ccc(S(=O)(=O)N4CCOCC4)cn3)ccc2n1CC1CCOCC1 [Co. No. 66]", "EC50": "14.8 nM"}
{"COMPOUND": "CC(=O)Nc1cc(S(=O)(=O)c2ccc3c(c2)nc(C(C)(C)C)n3CC2CCOCC2)cc[n+]1[O-] [Co. No. 96]", "EC50": "2 nM"}
{"COMPOUND": "CO[C@H]1CC[C@H](Cn2c(C(C)(C)C)nc3cc(S(=O)(=O)c4ccnc(F)c4)ccc32)CC1 [Co. No. 160]", "EC50": "4.27 nM"}

Now look at this one.
Inquiry: Given the entry CC(C)(C)c1nc2cc(S(=O)(=O)c3ccnc(C(N)=O)c3)ccc2n1CC1CCOCC1 [Co. No. 16] , report its measured EC50.
Reply text: 2.34 nM

Reference source: patent US9284303B2
